target: RBDSARS-CoV (SARS-CoV S protein residues 318-510, C-terminal His-tag) (SARS-CoV, UniProt P59594 318-510); test: ELISA
pIC50: −log10 of the molar value.
Reported pIC50 is given for each of the following binders.
property: pIC50

binder="5p-120 (VHH) VHH: HVQLVESGGGLVQAGGSLRLSCAASGRTFSRYAAGWFRQAPGKEREFVAVIEWDGDSAYYADSVKGRFTISRDNAKNTVYLQMNRLKPEDTAVYICAVGGNHYSRSKYYNLDEYDYWGQGTQVTVSS" property=pIC50 result="> 8.00"
binder="5p-24 (VHH) VHH: DVQLVESGGGLVQAGDSLRLSCTASGLTFSAYGMGWFRQAPGKEREFVAGIARSGSEFYGDSVKGRFTISRDNAKNTVYLQVNSLRPEDTALYYCAADRTILYHAISQRTQNYQYWGPGTQVTVSS" property=pIC50 result="> 8.00"
binder="5p-64 (VHH, class V psNb) VHH: QVQLVESGGGLVQAGGSLRLSCAASGRTFSTYAMAWFRQAPGKEREFVAGVARSADTTYYGDSVKGRFTISRDNAKNEVNLQMSSLKPEDTAVYYCAARSVIQYGIVPGNDFHYEYWGQGTQVTVSS" property=pIC50 result="> 8.00"
binder="5p-26 (VHH) VHH: DVQLVESGGGLVQAGGSLRLSCAASGRTLRSYNMGWFRQPPGKEREFVAALSWTGLGTYYADSVKGRFTISRDITKNTLYLQMDSLQPEDTANYYCAADSTLDRLHSAESDYRYWGQGTQVTVSS" property=pIC50 result="< 5.10"
binder="5p-15 (VHH) VHH: QVQLVESGGGLVQPGDSLRLACAASGGTFGYYALGWFRQAPGKEREFVGSITQTGFGTKYADAVKGRFTISRDNAKNTMYLQMNSLKPEDTAVYYCAADPTAQNMGIRDPPYWGQGTQVTVSS" property=pIC50 result="7.00 to 8.00"
binder="5p-18 (VHH) VHH: EVQLVESGGGLVQAGGSLRLSCEASGRTFSSYAMGWFRQAPGKEREFVAAISQGGSTDYGDSTKGRFTISRDNAKNTVYLQMNSLKPEDTAVYYCAADQTPLRYAYSTRSQDYDYWGQGTQVTVSS" property=pIC50 result="> 8.00"
binder="5p-25 (VHH) VHH: HVQLVESGGGLVQAGGSLRLSCAASGHISSRYAMAWFRQGPGKERDFVAGMSSGASTFYAESVKGRFTLSRDNAKNAMYLQMNSLKPEDTAVYYCAADSSPLRYGLSYSSNRYDYWGQGTQVTVSS" property=pIC50 result="> 8.00"
binder="4P-10 (VHH) VHH: HVQLVESGGGLVQAGDSLRLSCTASGRTFSAYGMGWFRQAPGKEREFVAGIARSGSEYYGDSVKGRFTISRDNAKNTVYLQMASLKAEDTGVYYCAADPTILYHAISQRTQNYRYWGPGTQVTVSS" property=pIC50 result="6.00 to 7.00"
